Reported IC50 is given for each of the following compounds.
molecular target: Genome polyprotein (Hepatitis C virus genotype 1a (isolate 1) (HCV), UniProt P26664); assay: Inhibitory concentration against HCV NS3 protease was determined
Sequence (P26664 1027-1657 limits assumed): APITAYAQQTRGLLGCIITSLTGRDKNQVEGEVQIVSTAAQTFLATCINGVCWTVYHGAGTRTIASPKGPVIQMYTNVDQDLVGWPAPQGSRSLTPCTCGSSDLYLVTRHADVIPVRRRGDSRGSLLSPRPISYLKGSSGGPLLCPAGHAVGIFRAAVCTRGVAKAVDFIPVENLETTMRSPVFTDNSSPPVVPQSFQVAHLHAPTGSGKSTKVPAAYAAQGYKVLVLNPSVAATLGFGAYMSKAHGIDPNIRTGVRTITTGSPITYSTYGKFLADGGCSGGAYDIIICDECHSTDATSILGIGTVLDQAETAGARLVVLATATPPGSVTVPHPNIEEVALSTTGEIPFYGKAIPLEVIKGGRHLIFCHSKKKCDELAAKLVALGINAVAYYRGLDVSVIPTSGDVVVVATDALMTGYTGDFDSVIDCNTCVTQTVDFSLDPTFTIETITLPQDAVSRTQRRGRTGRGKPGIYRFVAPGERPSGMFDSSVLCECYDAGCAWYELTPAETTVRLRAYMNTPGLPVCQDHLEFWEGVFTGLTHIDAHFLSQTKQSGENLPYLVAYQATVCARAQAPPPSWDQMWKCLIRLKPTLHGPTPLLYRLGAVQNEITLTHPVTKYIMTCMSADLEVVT
Numbered stars: 1 amine (or outer) side, 2 acyl side, 3 side chain; on linkers, the order of the positions; unused ones are H or OH. Square brackets hold non-standard residues; d marks the D form. Peptide text beside a SMILES is read from it. * marks the point of attachment. Abu(ψCOCO) = CC[C@H](N[*:1])C(=O)C(=O)[*:2]; Pyrazinecarbonyl = O=C(c1cnccn1)*; Cha = N[C@@H](CC1CCCCC1)C(=O)O; Sar = CNCC(=O)O
readoutKind: IC50 (µM)

compound | readoutKind | unitTag | boundType | val
CC[C@H](NC(=O)[C@H](CC1CCCCC1)NC(=O)[C@@H](NC(=O)[C@H](CC(C)C)NC(=O)c1cnccn1)[C@@H](C)CC)C(=O)C(=O)NCC(=O)O (Pyrazinecarbonyl-LI[Cha][Abu(ψCOCO)]G-OH) | IC50 | µM | = | 0.23
CC[C@H](NC(=O)[C@H](CC1CCCCC1)NC(=O)[C@@H](NC(=O)[C@H](CC(C)C)NC(=O)c1cnccn1)[C@@H](C)CC)C(=O)C(=O)NCC(=O)OC (Pyrazinecarbonyl-LI[Cha][Abu(ψCOCO)]G-OMe) | IC50 | µM | = | 5.8
C=CCNC(=O)C(=O)[C@H](CC)NC(=O)[C@H](CC1CCCCC1)NC(=O)[C@@H](NC(=O)[C@H](CC(C)C)NC(=O)c1cnccn1)[C@@H](C)CC | IC50 | µM | = | 2.7
CC[C@H](NC(=O)[C@H](CC1CCCCC1)NC(=O)[C@@H](NC(=O)[C@H](CC(C)C)NC(=O)c1cnccn1)[C@@H](C)CC)C(=O)C(=O)N[C@H](C)C(=O)O | IC50 | µM | > | 60
CC[C@H](NC(=O)[C@H](CC1CCCCC1)NC(=O)[C@@H](NC(=O)[C@H](CC(C)C)NC(=O)c1cnccn1)[C@@H](C)CC)C(=O)C(=O)N(C)CC(=O)O (Pyrazinecarbonyl-LI[Cha][Abu(ψCOCO)][Sar]-OH) | IC50 | µM | > | 60

* * *

biological target: Genome polyprotein (Hepatitis C virus genotype 1a (isolate 1) (HCV), UniProt P26664); assay: Inhibitory concentration against HCV NS3 protease was determined
Numbered stars: 1 amine (or outer) side, 2 acyl side, 3 side chain; on linkers, the order of the positions; unused ones are H or OH. Square brackets hold non-standard residues; d marks the D form. Peptide text beside a SMILES is read from it. * marks the point of attachment. Abu(ψCOCO) = CC[C@H](N[*:1])C(=O)C(=O)[*:2]; Pyrazinecarbonyl = O=C(c1cnccn1)*; Cha = N[C@@H](CC1CCCCC1)C(=O)O; NHAllyl = C=CCN*
Each entry below carries its reported IC50.
readoutKind: IC50

compound | val
CC[C@H](NC(=O)[C@H](CC1CCCCC1)NC(=O)[C@@H](NC(=O)[C@H](CC(C)C)NC(=O)c1cnccn1)[C@@H](C)CC)C(=O)C(=O)N[C@@H](CCCCN)C(=O)O (Pyrazinecarbonyl-LI[Cha][Abu(ψCOCO)]K-OH) | 7700 nM
C=CCNC(=O)C(=O)[C@H](CC)NC(=O)[C@@H]1CCCN1C(=O)[C@@H](NC(=O)[C@@H](NC(=O)[C@H](CCC(=O)O)NC(=O)[C@@H](N)CC(=O)O)C(C)C)C(C)C (H-DEVVP[Abu(ψCOCO)]-NHAllyl) | 420 nM
CCNC(=O)C(=O)[C@H](CC)NC(=O)[C@H](CC1CCCCC1)NC(=O)[C@@H](NC(=O)[C@H](CC(C)C)NC(=O)c1cnccn1)[C@@H](C)CC | 1800 nM
CC[C@H](NC(=O)[C@H](CC1CCCCC1)NC(=O)[C@@H](NC(=O)[C@H](CC(C)C)NC(=O)c1cnccn1)[C@@H](C)CC)C(=O)C(=O)N[C@@H](C)C(=O)O | 1300 nM
CC[C@H](NC(=O)[C@H](CC1CCCCC1)NC(=O)[C@@H](NC(=O)[C@H](CC(C)C)NC(=O)c1cnccn1)[C@@H](C)CC)C(=O)C(=O)N[C@@H](CC(=O)O)C(=O)O (Pyrazinecarbonyl-LI[Cha][Abu(ψCOCO)]D-OH) | 5300 nM
